Hi there, I'd appreciate the recorded enrichment ratio for every entry that follows.
B1: PhoQ; a variant is named by its letters at X, in order, P23837 (parent)
chain: MKKLLRLFFPLSLRVRFLLATAAVVLVLSLAYGMVALIGYSVSFDKTTFRLLRGESNLFYTLAKWENNKLHVELPENIDKQSPTMTLIYDENGQLLWAQRDVPWLMKMIQPDWLKSNGFHEIEADVNDTSLLLSGDHSIQQQLQEVREDDDDAEMTHSVAVNVYPATSRMPKLTIVVVDTIPVELKSSYMVWSWFIYVLSANLLLVIPLLWVAAWWSLRPIEALAKEVRELEEHNRELLNPATTRELTSLVRNLNRLLKSERERYDKYRTTLTDLTHSLKTPLXXLQXXLRSLRSEKMSVSDAEPVMLEQISRISQQIGYYLHRASMRGGTLLSRELHPVAPLLDNLTSALNKVYQRKGVNISLDISPEISFVGEQNDFVEVMGNVLDNACKYCLEFVEISARQTDEHLYIVVEDDGPGIPLSKREVIFDRGQRVDTLRPGQGVGLAVAREITEQYEGKIVAGESMLGGARMEVIFGRQHSAPKDE

variants of: B1; assay: enrichment ratio after two sorts for PhoP signalling (ratio (wild type AVST 3.29)); higher = more functional; settings: with PhoP (E. coli)
The full ranking holds about 140,000 sequences; the median of “enrichment ratio after two sorts for PhoP signalling” is about 0, and the highest 2% start at about 11. Shown is part of a subset that was picked to be rich in the highest values.

Query: enrichment ratio; subject: ASIC 12.1

Query: enrichment ratio; subject: TETA ≤ 0.25

Query: enrichment ratio; subject: RRQL ≤ 0.25

Query: enrichment ratio; subject: ASRC ≤ 0.25

Query: enrichment ratio; subject: ASWV ≤ 0.25

Query: enrichment ratio; subject: KSWM ≤ 0.25

Query: enrichment ratio; subject: HTSP ≤ 0.25

Query: enrichment ratio; subject: TNTV 10.2

Query: enrichment ratio; subject: MLTV ≤ 0.25

Query: enrichment ratio; subject: MNTV 12.2

Query: enrichment ratio; subject: KVFV ≤ 0.25

Query: enrichment ratio; subject: NVTM ≤ 0.25

Query: enrichment ratio; subject: MMGM 1.99

Query: enrichment ratio; subject: AVTV 12.1

Query: enrichment ratio; subject: APTW ≤ 0.25

Query: enrichment ratio; subject: KSGM ≤ 0.25

Query: enrichment ratio; subject: LWNG ≤ 0.25

Query: enrichment ratio; subject: TETR ≤ 0.25

Query: enrichment ratio; subject: YQHI ≤ 0.25

Query: enrichment ratio; subject: AMTV 9.95

Query: enrichment ratio; subject: MMTM 10.9

Query: enrichment ratio; subject: KVAI ≤ 0.25
